conditions: buffer; pH 7.4; 200.0 µM
Reported solubility kinetic values for a set of molecules
assay readout: solubility kinetic (µg/mL)

COc1ccccc1OCc1nc(-c2cccc([N+](=O)[O-])c2)no1 | 0.9
O=C(CN1CCN(c2ccccc2)CC1)Nc1ccncc1 | 38.6
CC(=O)NC(c1ccccc1)c1cc(Cl)c2cccnc2c1O (stereo unspecified) | 0.4

---

conditions: buffer; pH 7.4; 200.0 µM
Reported solubility kinetic values for a set of compounds
assay readout: solubility kinetic (µg/mL)

O=C1c2ccccc2NC(c2ccc(Br)s2)N1O (configuration not stated) | 37.5
Cc1ccc(OC(=O)c2cncc(Br)c2)c(C)c1 | 6.8
CN(C(=O)/C=C/c1ccccc1)C1CCCCC1 | 35.1
C=C(c1ccccc1C)[n+]1ccccc1 | 22.1
CCCCOc1ccc(Cc2cnc(N)nc2N)cc1 | 36.3
O=[N+]([O-])c1ccc2c(c1)[nH]c(=S)n2-c1ccccc1 | 2
Cc1cccc(NC(=O)c2ccc(COc3ccccc3)o2)n1 | 4.8
